Value source: paper PMC8876525

test system: HBV; experiment: Secreted HBV DNA in HepAD38 culture supernatant (RT-qPCR); type: cell-based; settings: Hepatitis B virus, 144 h; HepAD38 cells, 6 days; read-out: EC50 (secreted HBV DNA)
measured-attribute: EC50 (µM)
Numbers only, in µM.

{"columns": ["molecule", "tgt", "result-units", "EC50"],
 "data": [
  ["Cc1cc2c(cc1S(=O)(=O)N1CCCC(C(=O)Nc3ccc(F)c(Cl)c3)C1)OC(C)C(=O)N2 (stereo not shown) [Compound C-18]", "HBV", "µM", 0.11],
  ["CCOC(=O)c1c(S(=O)(=O)N2CCCC(C(=O)Nc3ccc(F)c(Cl)c3)C2)c(C)n(C)c1C (stereo not shown) [Compound C-39]", "HBV", "µM", 0.056],
  ["COc1cccc(-c2noc([C@@H]3CCCN3C(=O)Nc3ccc(F)c(Cl)c3)n2)c1 [Compound C-9]", "HBV", "µM", 1.14]
]}

Could you now consider this next molecule?
EC50 reading for O=C(Nc1ccc(F)c(F)c1)c1cc(S(=O)(=O)N(CCc2ccccc2)Cc2ccccc2)ccc1F [Compound C-19] : 0.39

====

test: CCK-8 cytotoxicity assay in HepAD38 cells; type: cell-based, Human; settings: human, 6 days
Give CC50 at 6 days for every item shown.
Give bare numbers, in µM.

{"columns": ["compound", "CC50 at 6 days, µM"],
 "data": [
  ["Cc1cc2c(cc1S(=O)(=O)N1CCCC(C(=O)Nc3ccc(F)c(Cl)c3)C1)OC(C)C(=O)N2 (stereo not drawn) [Compound C-18]", 14.8],
  ["CC(=O)N1c2ccc(S(=O)(=O)N3CCCC(C(=O)Nc4ccc(F)c(Cl)c4)C3)cc2CC1C (stereo not drawn) [Compound C-31]", 25]
]}

Could you tell me CC50 at 6 days for each of these compounds? They are listed below.
1. CC1Oc2ccc(S(=O)(=O)N3CCCC(C(=O)Nc4ccc(F)c(Cl)c4)C3)cc2NC1=O (stereo not drawn) [Compound C-35]
2. Cc1cc2c(cc1S(=O)(=O)N1CCCC(C(=O)Nc3ccc(F)c(Cl)c3)C1)OCC(=O)N2 (stereo not drawn) [Compound C-29]
3. Cc1nc(-c2csc(S(=O)(=O)N3CCCC(C(=O)Nc4ccc(F)c(Cl)c4)C3)c2)no1 (stereo not drawn) [Compound C-41]

Response:
9.8
18.2
95.6

====

assay: CCK-8 cytotoxicity assay in HepAD38 cells; type: cell-based, Human; conditions: human, 6 days
measured-attribute: CC50 at 6 days (µM)
Answers are plain numbers, in µM.

Could you tell me CC50 at 6 days for each of these compounds? They are listed below.
1. O=C(Nc1ccc(F)c(Cl)c1)C1CCCN(S(=O)(=O)c2c[nH]c(C(=O)N3CCCC3)c2)C1 (centres unmarked)
2. CCOC(=O)c1c(C)[nH]c(C)c1S(=O)(=O)N1CCCC(C(=O)Nc2ccc(F)c(Cl)c2)C1 (centres unmarked)
3. Cc1cccc(NC(=O)c2ccc3nnc(SCC(=O)Nc4ccc(F)c(F)c4)n3c2)c1
4. O=C(Nc1ccc(F)c(F)c1)c1cc(S(=O)(=O)N(CCc2ccccc2)Cc2ccccc2)ccc1F
5. CC1(C(=O)NCc2ccc(F)cc2)CCCN(C(=O)Nc2ccc(F)c(Cl)c2)C1 (centres unmarked)
6. O=C(CSc1nnc2ccc(C(=O)Nc3cccc(F)c3)cn12)Nc1ccc(F)c(F)c1
7. COc1cccc(-c2noc([C@@H]3CCCN3C(=O)Nc3ccc(F)c(Cl)c3)n2)c1

Response:
12.6
11
72.4
75.3
81.5
33.2
26.6
